Listing of recorded nH (pseudo Hill coefficient) by entry.
# assay-target: M1 receptor (Rattus norvegicus)
# Construct: from tissue; host or cells: Wistar male rat cerebral cortex, washed homogenate
# Sequence (P08482 whole entry): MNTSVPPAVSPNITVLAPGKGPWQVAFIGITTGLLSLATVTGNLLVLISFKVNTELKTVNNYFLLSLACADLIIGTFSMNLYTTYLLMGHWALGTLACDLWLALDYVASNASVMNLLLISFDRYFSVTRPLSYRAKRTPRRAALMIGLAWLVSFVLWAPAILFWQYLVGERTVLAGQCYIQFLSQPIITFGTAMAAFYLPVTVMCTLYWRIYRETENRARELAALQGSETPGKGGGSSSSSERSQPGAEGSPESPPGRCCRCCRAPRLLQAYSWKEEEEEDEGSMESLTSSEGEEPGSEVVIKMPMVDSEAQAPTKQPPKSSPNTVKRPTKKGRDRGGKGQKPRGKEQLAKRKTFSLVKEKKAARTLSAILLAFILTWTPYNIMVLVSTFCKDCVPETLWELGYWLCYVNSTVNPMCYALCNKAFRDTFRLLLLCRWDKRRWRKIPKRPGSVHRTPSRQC
# assay-comment: M1 receptor binding ((3H)pirenzepine, cerebral cortex)
# Parameters: species or system Wistar male rat
# measurement-setup: (3H)pirenzepine, rat cerebral cortex

# compound, assay-target, nH (pseudo Hill coefficient)
data = [
    ("CC1OC2(CS1)CN1CCC2CC1 (stereo not shown) [AF102B, reference compound]", "M1 receptor (Rattus norvegicus)", 0.8),
    ("C(=C1\\CN2CCC1CC2)/c1cccc(Oc2ccccc2)c1", "M1 receptor (Rattus norvegicus)", 0.8),
    ("C(=C1/CN2CCC1CC2)/c1cccc(Oc2ccccc2)c1", "M1 receptor (Rattus norvegicus)", 0.9),
    ("C[N+](C)(C)CC#CCOC(=O)Nc1cccc(Cl)c1 [McN-A-343, reference compound]", "M1 receptor (Rattus norvegicus)", 0.9),
]

---

pKi: −log10 of the molar value.
For reference, pKi measured on M1 receptor (Rattus norvegicus):
quantity: pKi

# compound, experimental-result
records = [
    ("C[N+](C)(C)CC#CCOC(=O)Nc1cccc(Cl)c1 [McN-A-343, reference compound]", 6.24),
    ("C(=C1\\CN2CCC1CC2)/c1cccc(Oc2ccccc2)c1 [Compound 1b]", 7.80),
    ("C(=C1/CN2CCC1CC2)/c1cccc(Oc2ccccc2)c1 [Compound 1a]", 6.82),
    ("CC1OC2(CS1)CN1CCC2CC1 (stereo not shown) [AF102B, reference compound]", 6.29),
]

---

# assay-target: M2 receptor (Rattus norvegicus)
# Construct: from tissue; host or cells: rat heart, 40,000 g membrane fraction
# assay-comment: M2 receptor binding ((3H)N-methyl scopolamine, heart)
# measurement-setup: M2 receptor binding
pIC50: −log10 of the molar value.

# molecule, pIC50
rows = [
    ("C(=C1\\CN2CCC1CC2)/c1cccc(Oc2ccccc2)c1 [Compound 1b]", "≥ 5.00"),
]

---

# assay-target: M2 receptor (Rattus norvegicus, UniProt P10980)
# Sequence (P10980 1-466): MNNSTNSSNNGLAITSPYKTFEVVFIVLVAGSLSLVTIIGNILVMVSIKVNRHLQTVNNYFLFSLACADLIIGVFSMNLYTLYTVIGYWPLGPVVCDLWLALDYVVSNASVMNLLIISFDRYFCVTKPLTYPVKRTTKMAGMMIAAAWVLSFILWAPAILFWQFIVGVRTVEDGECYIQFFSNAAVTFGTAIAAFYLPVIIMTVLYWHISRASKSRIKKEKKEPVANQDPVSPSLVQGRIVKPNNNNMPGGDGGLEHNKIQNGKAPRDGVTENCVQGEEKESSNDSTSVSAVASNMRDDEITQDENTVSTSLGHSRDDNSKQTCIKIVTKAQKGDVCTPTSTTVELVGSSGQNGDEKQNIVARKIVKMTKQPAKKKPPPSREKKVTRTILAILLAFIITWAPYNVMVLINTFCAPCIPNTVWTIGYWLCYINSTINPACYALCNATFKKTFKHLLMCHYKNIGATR
pKi: −log10 of the molar value.

# compound, pKi
data = [
    ("C(=C1\\CN2CCC1CC2)/c1cccc(Oc2ccccc2)c1", 5.77),
]

Cited source: patent US5494917A
